Listing of entries alongside the reported half-life.
Assay: Stability in human plasma assessed as half life measured upto 24 hrs by HPLC analysis
Format: ADME, cell-free
Expressed in h, but write only the number.

Check out these entries, answers already filled in.
CC(C)[C@]12O[C@H]1[C@@H]1O[C@]13[C@]1(O[C@H]1C[C@H]1C4=C(CC[C@@]13C)C(=O)OC4)[C@@H]2OC(=O)NCC1CCCN1 (some centres undefined): 1.45
CC(C)[C@]12O[C@H]1[C@@H]1O[C@]13[C@]1(O[C@H]1C[C@H]1C4=C(CC[C@@]13C)C(=O)OC4)[C@@H]2OC(=O)NCCN: 24.5
CNCCN(C)C(=O)O[C@@H]1[C@@]2(C(C)C)O[C@H]2[C@@H]2O[C@]23[C@]12O[C@H]2C[C@H]1C2=C(CC[C@@]13C)C(=O)OC2: 16.4

// moving on: another record for half-life
Challenge: State the recorded half-life for this entry: CC(C)[C@]12O[C@H]1[C@@H]1O[C@]13[C@]1(O[C@H]1C[C@H]1C4=C(CC[C@@]13C)C(=O)OC4)[C@@H]2OC(=O)NC1CCCCC1N (some centres undefined)
Response given: 1.69
